- measurement target: FSHR (Homo sapiens, UniProt P23945)
- Construct: expressed in transfected cells; host or cells: CHO (Cho-FSHR-LUC-1-1-43)
- Sequence (P23945 18-695): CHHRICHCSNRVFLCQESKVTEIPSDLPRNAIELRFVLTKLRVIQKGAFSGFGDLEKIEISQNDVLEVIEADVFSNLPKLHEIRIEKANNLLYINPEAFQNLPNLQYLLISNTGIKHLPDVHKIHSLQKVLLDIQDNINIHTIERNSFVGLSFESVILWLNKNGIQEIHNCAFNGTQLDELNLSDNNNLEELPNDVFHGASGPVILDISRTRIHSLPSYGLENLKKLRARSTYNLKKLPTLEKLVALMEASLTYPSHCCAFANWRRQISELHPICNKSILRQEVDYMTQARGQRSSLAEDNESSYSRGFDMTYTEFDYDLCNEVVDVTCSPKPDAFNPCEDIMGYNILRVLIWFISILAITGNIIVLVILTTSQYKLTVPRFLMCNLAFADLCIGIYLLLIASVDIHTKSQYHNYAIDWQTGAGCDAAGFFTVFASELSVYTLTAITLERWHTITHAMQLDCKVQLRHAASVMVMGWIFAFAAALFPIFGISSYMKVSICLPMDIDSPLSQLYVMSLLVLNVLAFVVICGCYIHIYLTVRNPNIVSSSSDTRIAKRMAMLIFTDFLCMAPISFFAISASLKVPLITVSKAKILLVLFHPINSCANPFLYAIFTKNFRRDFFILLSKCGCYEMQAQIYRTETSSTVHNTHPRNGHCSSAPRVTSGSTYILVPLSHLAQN
- Sequence (P01215 25-116 partner): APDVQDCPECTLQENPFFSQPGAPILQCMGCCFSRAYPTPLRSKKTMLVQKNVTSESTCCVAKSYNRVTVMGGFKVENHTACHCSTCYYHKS
- Sequence (P01225 19-129 partner): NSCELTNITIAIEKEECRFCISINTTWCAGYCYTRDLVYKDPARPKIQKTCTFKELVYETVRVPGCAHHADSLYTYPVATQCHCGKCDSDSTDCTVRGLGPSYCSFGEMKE
- protocol text: EC50 of cyclic AMP production in CHO FSHR cells + EC20 FSH (Assay A)
- Type: cell-based
- study conditions: 1 h; 5 μM; effect relative to maximum response of the FSH standard; Table 1
Kindly return Satisfied if reported activation at 5 µM is no lower than 20%; return Not satisfied if it is lower.

# count of solved cases: 5
>  <molecule>
Cc1ccccc1N1CCN(c2ccc(C(=O)NCCCN3CCCC3=O)cc2NC(=O)c2cnoc2C)CC1

>  <class>
Not satisfied

$$$$
>  <molecule>
Cc1ccccc1N1CCN(c2ccc(C(=O)NCCCN3CCCC3=O)cc2NS(=O)(=O)c2cccc3ncccc23)CC1

>  <class>
Satisfied

$$$$
>  <molecule>
Cc1ccc(N2CCN(c3ccc(C(=O)NCCCN4CCCC4=O)cc3NC(=O)c3coc(C4CC4)n3)CC2)cc1

>  <class>
Not satisfied

$$$$
>  <molecule>
Cc1ccccc1N1CCN(c2ccc(C(=O)NCCCN3CCCC3=O)cc2NC(=O)c2cc(C)c(C)o2)CC1

>  <class>
Satisfied

$$$$
>  <molecule>
Cc1ccccc1N1CCN(c2ccc(C(=O)NCCCN3CCCC3=O)cc2NC(=O)c2cccnc2)CC1

>  <class>
Satisfied

$$$$

In: Answer whether activation at 5 µM of Cc1cc(C)c(C(=O)Nc2cc(C(=O)NCCCN3CCCC3=O)ccc2N2CCN(c3ccccc3C)CC2)o1 is greater than or equal to 20%.
Out: Satisfied

In: Confirm if activation at 5 µM reported for the compound Cc1ccccc1N1CCN(c2ccc(C(=O)NCCCN3CCCC3=O)cc2NS(=O)(=O)Cc2cccc3cccnc23)CC1 is 20% or above.
Out: Satisfied

In: Answer whether activation at 5 µM of Cc1ccccc1N1CCN(c2ccc(C(=O)NCCCN3CCCC3=O)cc2NC(=O)c2conc2C)CC1 is greater than or equal to 20%.
Out: Satisfied

----------
- measurement target: FSHR (Homo sapiens)
- Construct: expressed in transfected cells; host or cells: CHO (Cho-FSHR-LUC-1-1-43)
- protocol text: EC50 of cyclic AMP production in CHO FSHR cells + EC20 FSH (Assay A)
- Format: cell-based
- study conditions: CHO FSHR cells + EC20 FSH; Table 2; read-out: Assay A EC50 of cyclic AMP production
outcome measure: EC50

Provide the reported EC50 of each entry below, same order.
1. Cc1ccccc1N1CCN(c2ccc(C(=O)Nc3cccc(N4CCCC4=O)c3)cc2NC(=O)c2coc(C3CC3)n2)CC1
2. Cc1ccccc1N1CCN(c2ccc(C(=O)NCCCN3C(=O)CCC3(C)C)cc2NC(=O)c2coc(C3CC3)n2)CC1
3. Cc1ccccc1N1CCN(c2ccc(C(=O)NC3CCN(C4CCCC4)C3)cc2NC(=O)c2ccco2)CC1 (centres unmarked)
4. O=C(NCCCN1CCCC1=O)c1ccc(N2CCN(c3ccccc3Br)CC2)c(NC(=O)c2coc(C3CC3)n2)c1
5. CCN(CC)Cc1cccc(CNC(=O)c2ccc(N3CCN(c4ccccc4C)CC3)c(NC(=O)c3ccc(C)o3)c2)c1

Out:
100 to 1000 nM
100 to 1000 nM
1000 to 10000 nM
100 to 1000 nM
1000 to 10000 nM

Respectfully, I request EC50 for each entry included below.
1. Cc1ccccc1N1CCN(c2ccc(C(=O)NCCCN3C(=O)[C@H]4C[C@@H]3C(O)C4O)cc2NC(=O)c2coc(C3CC3)n2)CC1 (some centres unmarked)
2. Cc1cccnc1N1CCN(c2ccc(C(=O)NCCc3c[nH]cn3)cc2NC(=O)c2coc(C3CC3)n2)CC1
3. Cc1ccccc1N1CCN(c2ccc(C(=O)NC[C@@H]3OC(C)(C)O[C@H]3CN)cc2NC(=O)c2coc(C3CC3)n2)CC1
4. CCN(C)Cc1cccc(CNC(=O)c2ccc(N3CCN(c4ccccc4C)CC3)c(NC(=O)c3coc(C4CC4)n3)c2)c1
5. Cc1cc(N2CCN(c3ccc(C(=O)NCCCN4CCCC4=O)cc3NC(=O)c3coc(C4CC4)n3)CC2)ncn1
6. CCOc1cc(CCCNC(=O)c2ccc(N3CCN(c4ccccc4C)CC3)c(NC(=O)c3ccc(C)o3)c2)ccc1OC
7. Cc1ccc(C(=O)Nc2cc(C(=O)NCc3cccc(CN(C)C)c3)ccc2N2CCN(c3ccccc3C)CC2)o1

Out:
1: 100 to 1000 nM; 2: 100 to 1000 nM; 3: 100 to 1000 nM; 4: 100 to 1000 nM; 5: > 10000 nM; 6: 100 to 1000 nM; 7: 1000 to 10000 nM

Report EC50 for every entry below.
1. CCCCNC(=O)NCCCNC(=O)c1ccc(N2CCN(c3ccccc3C)CC2)c(NC(=O)c2coc(C3CC3)n2)c1
2. CC(=O)NCCCCNC(=O)c1ccc(N2CCN(c3ccccc3C)CC2)c(NC(=O)c2coc(C3CC3)n2)c1

Out:
1. 100 to 1000 nM
2. 100 to 1000 nM
